# TARGET_OR_SYSTEM: Prostaglandin G/H synthase 2 (Ovis aries, UniProt P79208)
# Sequence (P79208 whole entry): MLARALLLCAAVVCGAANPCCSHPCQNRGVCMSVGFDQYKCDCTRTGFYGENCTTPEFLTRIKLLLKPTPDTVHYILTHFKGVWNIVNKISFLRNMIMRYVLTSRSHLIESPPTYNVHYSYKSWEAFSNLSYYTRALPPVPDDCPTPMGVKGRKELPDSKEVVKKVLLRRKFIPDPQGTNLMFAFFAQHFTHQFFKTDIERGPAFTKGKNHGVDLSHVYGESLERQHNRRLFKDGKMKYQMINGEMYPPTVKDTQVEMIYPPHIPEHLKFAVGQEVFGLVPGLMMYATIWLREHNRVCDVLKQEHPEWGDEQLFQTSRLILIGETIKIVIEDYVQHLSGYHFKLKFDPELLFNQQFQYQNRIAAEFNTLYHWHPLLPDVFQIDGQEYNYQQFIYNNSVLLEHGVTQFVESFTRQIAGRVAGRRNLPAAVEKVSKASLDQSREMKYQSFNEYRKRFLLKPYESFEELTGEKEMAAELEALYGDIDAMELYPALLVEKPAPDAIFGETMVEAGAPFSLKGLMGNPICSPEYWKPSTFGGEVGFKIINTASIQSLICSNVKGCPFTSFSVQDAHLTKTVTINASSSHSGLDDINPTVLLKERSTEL
# EXPERIMENT: Inhibition of sheep placental COX-2 using arachidonic acid as substrate assessed as production of PGF2alpha by enzyme immunoassay in presence of stannous chloride
pIC50: −log10 of the molar value.
RESULT_TYPE: pIC50

structure_notation=CC(C)(C)C1=CC(=NNC(=O)c2ccccc2)C=C(C(C)(C)C)C1=O readout_number=5.02
structure_notation=CC(C)(C)c1cc(/C=C2\SC(N)=NC2=O)cc(C(C)(C)C)c1O readout_number=6.32
structure_notation=CC(C)(C)C1=CC(=NNC(=O)c2cccnc2)C=C(C(C)(C)C)C1=O readout_number=5.03
structure_notation=CC(C)(C)C1=CC(=NNC(=O)c2ccncc2)C=C(C(C)(C)C)C1=O readout_number=5.12

---

# EXPERIMENT: Cytotoxicity against mouse APC10.1 cells assessed as decrease in cell survival after 18 hrs by MTS assay
# Format: functional, cell-based
pIC50: −log10 of the molar value.
RESULT_TYPE: pIC50

compound=CC(C)(C)C1=CC(=NNC(=O)c2ccncc2)C=C(C(C)(C)C)C1=O result_type=pIC50 readout_number=5.05
compound=CC(C)(C)C1=CC(=NNC(=O)c2ccccc2)C=C(C(C)(C)C)C1=O result_type=pIC50 readout_number=4.70
compound=CC(C)(C)C1=CC(=NNC(=O)c2cccnc2)C=C(C(C)(C)C)C1=O result_type=pIC50 readout_number=5.12
compound="Cc1ccc(-c2cc(C(F)(F)F)nn2-c2ccc(S(N)(=O)=O)cc2)cc1 [CELECOXIB]" result_type=pIC50 readout_number=5.38

Data credit: ChEMBL document CHEMBL2380226
